# System: rodent lifetime carcinogenesis bioassay, tumor incidence TD50
# protocol_summary: carcinogenic potency in animals, long-term in vivo studies, CPDB compilation (AID 1745844)
# study_conditions: rat; strain Wistar albino; females; in drinking water; site: thyroid gland; lesion: carcinoma; dosed 78 weeks; study length 78 weeks
experimental_endpoint: TD50

Consider CCCc1cc(=O)[nH]c(=S)[nH]1 . Its measured TD50 is 115 mg/kg/day

* * *

# System: rodent lifetime carcinogenesis bioassay, tumor incidence TD50
# protocol_summary: carcinogenic potency in animals, long-term in vivo studies, CPDB compilation (AID 1745844)
# study_conditions: hamster; strain Syrian Golden; males; by gavage; site: liver; lesion: cholangiocarcinoma; dosed 35 weeks; study length 65 weeks
experimental_endpoint: TD50

The reported rodent lifetime carcinogenesis bioassay, tumor incidence TD50 TD50 of O=NN1CCOC1 is 0.471 mg/kg/day

* * *

# System: rodent lifetime carcinogenesis bioassay, tumor incidence TD50
# protocol_summary: carcinogenic potency in animals, long-term in vivo studies, CPDB compilation (AID 1745844)
# study_conditions: rat; strain Fischer 344; males; in feed; site: multiple organs + spleen + subcutaneous tissue + tunica vaginalis; lesion: angiosarcoma + fibrosarcoma + mesothelioma + osteosarcoma + sarcoma, NOS + fibroma; dosed 102 weeks; study length 104 weeks
experimental_endpoint: TD50 (mg/kg/day)
Use mg/kg/day as the unit, but write only the number.

Consider Cc1ccccc1N . Its measured TD50 is 23.3

* * *

# System: rodent lifetime carcinogenesis bioassay, tumor incidence TD50
# protocol_summary: carcinogenic potency in animals, long-term in vivo studies, CPDB compilation (AID 1745844)
# study_conditions: mouse; strain Swiss; males; in feed; site: liver; lesion: hepatoma; dosed 115 weeks; study length 115 weeks
experimental_endpoint: TD50

Consider COC1=CC(=O)C[C@@H](C)[C@]12Oc1c(Cl)c(OC)cc(OC)c1C2=O . Its measured TD50 is 1660 mg/kg/day

* * *

# Test system: rodent lifetime carcinogenesis bioassay, tumor incidence TD50
# protocol_summary: carcinogenic potency in animals, long-term in vivo studies, CPDB compilation (AID 1745844)
# study_conditions: rat; strain Fischer 344; males; in feed; site: thyroid gland; lesion: follicular-cell adenoma; dosed 103 weeks; study length 104 weeks
experimental_endpoint: TD50

Consider N=C1C=CC(=C(c2ccc(N)cc2)c2ccc(N)cc2)C=C1 . Its measured TD50 is 176 mg/kg/day

* * *

# System: rodent lifetime carcinogenesis bioassay, tumor incidence TD50
# protocol_summary: carcinogenic potency in animals, long-term in vivo studies, CPDB compilation (AID 1745844)
# study_conditions: mouse; strain B6C3F1; females; inhaled; site: liver; lesion: hepatoma; dosed 78 weeks; study length 154 weeks
experimental_endpoint: TD50

The reported rodent lifetime carcinogenesis bioassay, tumor incidence TD50 TD50 of ClC=C(Cl)Cl is 13600 mg/kg/day

* * *

# Tested on: rodent lifetime carcinogenesis bioassay, tumor incidence TD50
# protocol_summary: carcinogenic potency in animals, long-term in vivo studies, CPDB compilation (AID 1745844)
# study_conditions: mouse; strain B6C3F1; females; in feed; site: any site (literature study); lesion: several types; types named in the paper; dosed 104 weeks; study length 104 weeks
Calls of active or inactive are those of the source. The rule behind the calls is not given here.
experimental_endpoint: TD50

Example molecules with recorded TD50:
{"columns": ["compound_structure_string", "TD50"],
 "data": [
  ["Cc1cc(O)c(C(C)(C)C)cc1Sc1cc(C(C)(C)C)c(O)cc1C", "484 mg/kg/day (inactive)"],
  ["Cc1cc(O)c2c(c1)C(=O)c1cc(O)cc(O)c1C2=O", "548 mg/kg/day (inactive)"],
  ["Cc1ncc[nH]1", "729 mg/kg/day"]
]}

Kindly consider the entry below.
The reported rodent lifetime carcinogenesis bioassay, tumor incidence TD50 TD50 of Nc1c(Br)cc(Br)c2c1C(=O)c1ccccc1C2=O is 1030 mg/kg/day

* * *

# System: rodent lifetime carcinogenesis bioassay, tumor incidence TD50
# protocol_summary: carcinogenic potency in animals, long-term in vivo studies, CPDB compilation (AID 1745844)
# study_conditions: mouse; strain B6C3F1; males; in feed; site: Harderian gland; lesion: adenoma + carcinoma; dosed 103 weeks; study length 104 weeks
Active and inactive are the calls of the source. How the calls were made is not given here.
experimental_endpoint: TD50

Consider OCCO . Its measured TD50 is 19200 mg/kg/day (inactive)

* * *

# Test system: rodent lifetime carcinogenesis bioassay, tumor incidence TD50
# protocol_summary: carcinogenic potency in animals, long-term in vivo studies, CPDB compilation (AID 1745844)
# study_conditions: rat; strain Fischer 344; females; by gavage; site: spleen; lesion: fibrosarcoma + osteosarcoma; dosed 103 weeks; study length 105 weeks
experimental_endpoint: TD50 (mg/kg/day)
Use mg/kg/day as the unit, but write only the number.

Consider Nc1ccc(Cl)cc1 . Its measured TD50 is 232

* * *

# Tested on: rodent lifetime carcinogenesis bioassay, tumor incidence TD50
# protocol_summary: carcinogenic potency in animals, long-term in vivo studies, CPDB compilation (AID 1745844)
# study_conditions: rat; strain Sprague-Dawley albino; both sexes; in feed; site: mammary gland; lesion: adenoma; dosed 104 weeks; study length 104 weeks
experimental_endpoint: TD50

The reported rodent lifetime carcinogenesis bioassay, tumor incidence TD50 TD50 of C#C[C@]1(OC(C)=O)CC[C@H]2[C@@H]3CCC4=CC(=O)CC[C@@H]4[C@H]3CC[C@@]21C (tested in a mixture with another compound) is 14.8 mg/kg/day

* * *

# System: rodent lifetime carcinogenesis bioassay, tumor incidence TD50
# protocol_summary: carcinogenic potency in animals, long-term in vivo studies, CPDB compilation (AID 1745844)
# study_conditions: mouse; strain B6C3F1; males; oral dosing; site: lung; lesion: adenoma; dosed 84 weeks; study length 84 weeks
experimental_endpoint: TD50 (mg/kg/day)
Use mg/kg/day as the unit, but write only the number.

Consider CC(C)N(C(=O)SCC(Cl)=CCl)C(C)C . Its measured TD50 is 113

* * *

# System: rodent lifetime carcinogenesis bioassay, tumor incidence TD50
# protocol_summary: carcinogenic potency in animals, long-term in vivo studies, CPDB compilation (AID 1745844)
# study_conditions: rat; strain Fischer 344; females; by gavage; site: nasal cavity; lesion: adenocarcinoma + adenoma, NOS; dosed 100 weeks; study length 104 weeks
experimental_endpoint: TD50

Consider CC(C)=CCl . Its measured TD50 is 143 mg/kg/day

* * *

# Tested on: rodent lifetime carcinogenesis bioassay, tumor incidence TD50
# protocol_summary: carcinogenic potency in animals, long-term in vivo studies, CPDB compilation (AID 1745844)
# study_conditions: rat; strain Sprague-Dawley; females; in feed; site: mammary gland; lesion: adenocarcinoma; dosed 110 weeks; study length 110 weeks
experimental_endpoint: TD50

Consider CCOc1ccc(NC(C)=O)cc1 . Its measured TD50 is 1380 mg/kg/day

* * *

# System: rodent lifetime carcinogenesis bioassay, tumor incidence TD50
# protocol_summary: carcinogenic potency in animals, long-term in vivo studies, CPDB compilation (AID 1745844)
# study_conditions: rat; strain F344/DuCrj; females; in feed; site: brain; lesion: astrocytoma; dosed 67 weeks; study length 67 weeks
experimental_endpoint: TD50

Consider Cc1cccn2c1nc1ccc(N)nc12 . Its measured TD50 is 95.9 mg/kg/day

* * *

# Tested on: rodent lifetime carcinogenesis bioassay, tumor incidence TD50
# protocol_summary: carcinogenic potency in animals, long-term in vivo studies, CPDB compilation (AID 1745844)
# study_conditions: mouse; strain Swiss albino; females; in drinking water; site: all sites; lesion: malignant lymphoma; dosed 93 weeks; study length 93 weeks
experimental_endpoint: TD50

The reported rodent lifetime carcinogenesis bioassay, tumor incidence TD50 TD50 of CCCCNNCCCC is 198 mg/kg/day

* * *

# System: rodent lifetime carcinogenesis bioassay, tumor incidence TD50
# protocol_summary: carcinogenic potency in animals, long-term in vivo studies, CPDB compilation (AID 1745844)
# study_conditions: mouse; strain B6C3F1; females; by gavage; site: forestomach; lesion: squamous-cell carcinoma + squamous-cell papilloma; dosed 103 weeks; study length 105 weeks
Listed here: items and their measured TD50.

{"columns": ["compound", "system", "TD50"],
 "data": [
  ["C=C(C)CCl", "rodent lifetime carcinogenesis bioassay, tumor incidence TD50", "82.3 mg/kg/day"]
]}

Consider CC(Cl)CCl (configuration not stated) . Its measured TD50 is 1020 mg/kg/day

* * *

# Test system: rodent lifetime carcinogenesis bioassay, tumor incidence TD50
# protocol_summary: carcinogenic potency in animals, long-term in vivo studies, CPDB compilation (AID 1745844)
# study_conditions: rat; strain Fischer 344; males; by gavage; site: Zymbal's gland; lesion: carcinoma; dosed 30 weeks; study length 65 weeks
experimental_endpoint: TD50

Consider CN=[N+](C)[O-] . Its measured TD50 is 0.204 mg/kg/day

* * *

# Tested on: rodent lifetime carcinogenesis bioassay, tumor incidence TD50
# protocol_summary: carcinogenic potency in animals, long-term in vivo studies, CPDB compilation (AID 1745844)
# study_conditions: mouse; strain Swiss albino; males; in drinking water; site: lung; lesion: several types; types named in the paper; dosed 81 weeks; study length 81 weeks
experimental_endpoint: TD50

Consider CN(C)NC(=O)CCC(=O)O . Its measured TD50 is 1110 mg/kg/day
